# PROTOCOL_SUMMARY: Tmax in po dosed rat at 10 mg/kg, po or 1 mg/kg, iv
# Assay type: ADME, organism-based
# TEST_CONTEXT: in vivo
EXPERIMENTAL_READOUT: Tmax (min)
Provide the reading as a plain figure in min.

Request: Please list Tmax recorded for the compound O=C(N[C@@H]1CC[C@@H](c2cccc(F)c2F)CN(CC(F)(F)F)C1=O)N1CCC(n2c(=O)[nH]c3ncccc32)CC1
Response: 40.2

====

// each record: one item and its pKi for Calcitonin gene-related peptide type 1 receptor (Homo sapiens, UniProt Q16602)
Interpret pKi as the negative base-10 log of the concentration measured in mol/L.

Worked examples follow.
Request: Under Calcitonin gene-related peptide type 1 receptor (Homo sapiens, UniProt Q16602), report pKi for O=C1NC[C@H](c2ccccc2)CC[C@H]1NC(=O)N1CCC(n2c(=O)[nH]c3ncccc32)CC1
Response: 7.08

Request: Under Calcitonin gene-related peptide type 1 receptor (Homo sapiens, UniProt Q16602), report pKi for O=C1NC[C@H](c2ccccc2F)CC[C@H]1NC(=O)N1CCC(n2c(=O)[nH]c3ncccc32)CC1
Response: 7.66

Request: Under Calcitonin gene-related peptide type 1 receptor (Homo sapiens, UniProt Q16602), report pKi for O=C(N[C@@H]1CC[C@@H](c2cccc(F)c2F)CN(CC2CC2)C1=O)N1CCC(n2c(=O)[nH]c3ncccc32)CC1
Response: 8.85

Request: Under Calcitonin gene-related peptide type 1 receptor (Homo sapiens, UniProt Q16602), report pKi for CN(C)CCN1C[C@H](c2cccc(F)c2F)CC[C@@H](NC(=O)N2CCC(n3c(=O)[nH]c4ncccc43)CC2)C1=O
Response: 8.31

Further cases:
Request: Under Calcitonin gene-related peptide type 1 receptor (Homo sapiens, UniProt Q16602), report pKi for O=C(N[C@@H]1CC[C@@H](c2cccc(F)c2F)CN(CCOC(F)(F)F)C1=O)N1CCC(n2c(=O)[nH]c3ncccc32)CC1
Response: 9.72

Request: Under Calcitonin gene-related peptide type 1 receptor (Homo sapiens, UniProt Q16602), report pKi for O=C(N[C@@H]1CC[C@@H](c2cccc(F)c2F)CN(Cc2ccccn2)C1=O)N1CCC(n2c(=O)[nH]c3ncccc32)CC1
Response: 9.05

Request: Under Calcitonin gene-related peptide type 1 receptor (Homo sapiens, UniProt Q16602), report pKi for C[S+]([O-])CCN1C[C@H](c2cccc(F)c2F)CC[C@@H](NC(=O)N2CCC(n3c(=O)[nH]c4ncccc43)CC2)C1=O (some centres not stated)
Response: 8.77

====

# TESTED_ON: Calcitonin gene-related peptide type 1 receptor (Homo sapiens)
# PROTOCOL_SUMMARY: Ratio of IC50 for human CL receptor in E10 cells in presence of 50% human serum over IC50 for human CL receptor in E10 cells
EXPERIMENTAL_READOUT: Ratio IC50
Number only, please.

Worked examples follow.
Request: Please list Ratio IC50 recorded for the molecule O=C1NC[C@H](c2ccccc2F)CC[C@H]1NC(=O)N1CCC(n2c(=O)[nH]c3ncccc32)CC1
Response: 1.8

Request: Please list Ratio IC50 recorded for the molecule O=C1NC[C@H](c2ccccc2)CC[C@H]1NC(=O)N1CCC(n2c(=O)[nH]c3ncccc32)CC1
Response: 1.3

Request: Please list Ratio IC50 recorded for the molecule O=C(N[C@@H]1CC[C@@H](c2ccccc2)CN(CC2CC2)C1=O)N1CCC(n2c(=O)[nH]c3ncccc32)CC1
Response: 9

Further cases:
Request: Please list Ratio IC50 recorded for the molecule O=C1NC[C@H](c2cccc(F)c2)CC[C@H]1NC(=O)N1CCC(n2c(=O)[nH]c3ncccc32)CC1
Response: 1.1

====

Documented pIC50 across a set of molecules
# TESTED_ON: Calcitonin gene-related peptide type 1 receptor (Homo sapiens, UniProt O60894+Q16602)
# Sequence (Q16602 whole entry, one chain of several): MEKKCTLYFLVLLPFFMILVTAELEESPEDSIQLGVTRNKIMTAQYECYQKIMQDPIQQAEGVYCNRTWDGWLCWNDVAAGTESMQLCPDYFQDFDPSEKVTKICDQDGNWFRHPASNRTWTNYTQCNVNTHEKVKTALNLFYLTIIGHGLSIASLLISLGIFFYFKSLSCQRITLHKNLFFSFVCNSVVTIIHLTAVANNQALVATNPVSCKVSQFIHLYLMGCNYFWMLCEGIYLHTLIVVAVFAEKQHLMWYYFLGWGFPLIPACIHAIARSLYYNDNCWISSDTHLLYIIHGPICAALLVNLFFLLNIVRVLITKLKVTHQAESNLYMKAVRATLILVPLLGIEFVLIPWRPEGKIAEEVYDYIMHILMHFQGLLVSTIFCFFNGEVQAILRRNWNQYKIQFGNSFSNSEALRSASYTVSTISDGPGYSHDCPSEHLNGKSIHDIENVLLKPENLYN
# PROTOCOL_SUMMARY: Antagonist activity at human CL receptor expressed in E10 cells assessed as CGRP-stimulated cAMP production in presence of 50% human serum
Interpret pIC50 as the negative base-10 log of the concentration measured in mol/L.

Worked examples follow.
Request: Please list pIC50 recorded for the molecule CSCCN1C[C@H](c2cccc(F)c2F)CC[C@@H](NC(=O)N2CCC(n3c(=O)[nH]c4ncccc43)CC2)C1=O
Response: 8.10

Request: Please list pIC50 recorded for the molecule O=C1NCC(c2ccccc2F)CC[C@H]1NC(=O)N1CCC(n2c(=O)[nH]c3ncccc32)CC1 (some centres undefined)
Response: 6.60

Further cases:
Request: Please list pIC50 recorded for the molecule O=C(N[C@@H]1CC[C@@H](c2ccccc2)CN(CC2CC2)C1=O)N1CCC(n2c(=O)[nH]c3ncccc32)CC1
Response: 6.47

Request: Please list pIC50 recorded for the molecule O=C1NC[C@H](c2ccccc2F)CC[C@H]1NC(=O)N1CCC(n2c(=O)[nH]c3ncccc32)CC1
Response: 6.92

====

Documented half-life across a set of compounds
# PROTOCOL_SUMMARY: Half life in rhesus monkey at 0.5 mg/kg, iv
# Type: ADME, organism-based, Macaca mulatta
# Design: dose 0.5 mg/kg, route intravenous
# TEST_CONTEXT: in vivo
Provide the reading as a plain figure in h.

Worked examples follow.
Request: Please list half-life recorded for the compound CN1C[C@H](c2cccc(F)c2F)CC[C@@H](NC(=O)N2CCC(n3c(=O)[nH]c4ncccc43)CC2)C1=O
Response: 1.9

Request: Please list half-life recorded for the compound CCN1C[C@H](c2cccc(F)c2F)CC[C@@H](NC(=O)N2CCC(n3c(=O)[nH]c4ncccc43)CC2)C1=O
Response: 2.3

Lab note: next compound to report on.
Request: Please list half-life recorded for the compound O=C(N[C@@H]1CC[C@@H](c2cccc(F)c2F)CN(CC(F)(F)F)C1=O)N1CCC(n2c(=O)[nH]c3ncccc32)CC1
Response: 2.8

====

# PROTOCOL_SUMMARY: Clearance in rhesus monkey at 0.5 mg/kg, iv
# Assay type: ADME, organism-based, Macaca mulatta
# Set-up: dose 0.5 mg/kg, route intravenous
# TEST_CONTEXT: in vivo
Documented clearance across a set of compounds
Provide the reading as a plain figure in mL/min/kg.

Worked examples follow.
Request: Please list clearance recorded for the compound O=C(N[C@@H]1CC[C@@H](c2cccc(F)c2F)CN(CC(F)(F)F)C1=O)N1CCC(n2c(=O)[nH]c3ncccc32)CC1 [TELCAGEPANT]
Response: 7

Request: Please list clearance recorded for the compound CN1C[C@H](c2cccc(F)c2F)CC[C@@H](NC(=O)N2CCC(n3c(=O)[nH]c4ncccc43)CC2)C1=O
Response: 7.1

Lab note: next compound to report on.
Request: Please list clearance recorded for the compound CCN1C[C@H](c2cccc(F)c2F)CC[C@@H](NC(=O)N2CCC(n3c(=O)[nH]c4ncccc43)CC2)C1=O
Response: 8.7

====

# TESTED_ON: Calcitonin gene-related peptide type 1 receptor (Homo sapiens)
# PROTOCOL_SUMMARY: Antagonist activity at human CL receptor expressed in E10 cells assessed as CGRP-stimulated cAMP production
Use IC50 to assign classes; range list: 1: < 5 nM; 2: ≥ 5 nM and < 60 nM; 3: ≥ 60 nM

Request: Kindly state the category for this molecule: O=C(N[C@@H]1CC[C@@H](c2ccccc2)CN(CC2CC2)C1=O)N1CCC(n2c(=O)[nH]c3ncccc32)CC1
Response: 2

Request: Kindly state the category for this molecule: O=C1NCC(c2ccccc2F)CC[C@H]1NC(=O)N1CCC(n2c(=O)[nH]c3ncccc32)CC1 (stereo partly specified)
Response: 3

Request: Kindly state the category for this molecule: C[S+]([O-])CCN1C[C@H](c2cccc(F)c2F)CC[C@@H](NC(=O)N2CCC(n3c(=O)[nH]c4ncccc43)CC2)C1=O (stereo partly specified)
Response: 2

Request: Kindly state the category for this molecule: O=C(N[C@@H]1CC[C@@H](c2cccc(F)c2F)CN(CCOC(F)(F)F)C1=O)N1CCC(n2c(=O)[nH]c3ncccc32)CC1
Response: 1

Request: Kindly state the category for this molecule: O=C(N[C@@H]1CC[C@@H](c2cccc(F)c2F)CN(CC(F)(F)F)C1=O)N1CCC(n2c(=O)[nH]c3ncccc32)CC1 [TELCAGEPANT]
Response: 1

Further cases:
Request: Kindly state the category for this molecule: CSCCN1C[C@H](c2cccc(F)c2F)CC[C@@H](NC(=O)N2CCC(n3c(=O)[nH]c4ncccc43)CC2)C1=O
Response: 1

====

# Tested on: Canis lupus familiaris
# PROTOCOL_SUMMARY: Oral bioavailability in dog at 1 mg/kg
# TEST_CONTEXT: in vivo
EXPERIMENTAL_READOUT: bioavailability

Worked examples follow.
Request: Under Canis lupus familiaris, report bioavailability for O=C(N[C@@H]1CC[C@@H](c2ccccc2)CN(CC2CC2)C1=O)N1CCC(n2c(=O)[nH]c3ncccc32)CC1
Response: 41%

Request: Under Canis lupus familiaris, report bioavailability for O=C(N[C@@H]1CC[C@@H](c2cccc(F)c2F)CN(CCF)C1=O)N1CCC(n2c(=O)[nH]c3ncccc32)CC1
Response: 14%

Request: Under Canis lupus familiaris, report bioavailability for CCN1C[C@H](c2cccc(F)c2F)CC[C@@H](NC(=O)N2CCC(n3c(=O)[nH]c4ncccc43)CC2)C1=O
Response: 61%

Lab note: next compound to report on.
Request: Under Canis lupus familiaris, report bioavailability for COCCN1C[C@H](c2cccc(F)c2F)CC[C@@H](NC(=O)N2CCC(n3c(=O)[nH]c4ncccc43)CC2)C1=O
Response: 6%
